Tested on: Human HepatoMune™ co-cultures
Assay: cells
Conditions: read-out: IC50 (concentration at which 50% of the cells are dead), presence of 50 ng/ml LPS

COMPOUND	UNIT STRING	IC50
CN(C)CCCN1c2ccccc2Sc2ccc(Cl)cc21 [chlorpromazine]	µM	17
